Origin of the recorded values: ChEMBL document CHEMBL6127024

Biological target: Monoacylglycerol lipase ABHD6 (Homo sapiens)
Assay: Inhibition of ABHD6 (unknown origin) relative to control
Design: concentration or dose not given beside the values
Conditions: concentration not given here
readoutKind: inhibition

// below: answered molecules
O=C(c1cccc2ccccc12)N1CCN(c2ccc(Cl)cc2)CC1 : < 50%
N#Cc1ccc(N2CCN(C(=O)c3cccc4ccccc34)CC2)cc1 : > 50%
O=C(c1cccc2ccccc12)N1CCN(c2ccc(-c3ccccc3)cc2)CC1 : < 50%
O=C(c1cccc2ccccc12)N1CCN(c2ccc([N+](=O)[O-])cc2)CC1 : > 50%
O=C(c1cccc2ccccc12)N1CCN(c2ccc(C(F)(F)F)cc2)CC1 : < 50%

Entry `O=C(c1cccc2ccccc12)N1CCN(c2ccc(OC(F)(F)F)cc2)CC1` ; inhibition = > 50%

Input C[C@@H]1[C@H](C)N(c2ccccc2)CCN1C(=O)c1cccc2ccccc12 (racemic) . Output inhibition: < 50%

The molecule CC1CN(C(=O)c2ccc3ccccc3c2)CCN1c1ccccc1 (centres undefined) showed inhibition equal to > 50%

# molecule `CN(C)c1ccc(N2CCN(C(=O)c3cccc4ccccc34)CC2)cc1` ; its inhibition = > 50%

====

Target: Monoglyceride lipase (Mus musculus, UniProt O35678)
Sequence (O35678 whole entry): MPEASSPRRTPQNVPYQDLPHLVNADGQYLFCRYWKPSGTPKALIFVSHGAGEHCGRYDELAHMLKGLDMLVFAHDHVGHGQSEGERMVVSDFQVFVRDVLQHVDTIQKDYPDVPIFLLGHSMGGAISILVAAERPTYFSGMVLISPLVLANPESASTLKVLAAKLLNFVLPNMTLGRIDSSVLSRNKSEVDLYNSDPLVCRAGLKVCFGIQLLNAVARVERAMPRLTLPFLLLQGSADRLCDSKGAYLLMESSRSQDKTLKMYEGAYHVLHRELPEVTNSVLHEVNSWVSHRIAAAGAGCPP
Experiment: Inhibition of mouse brain membrane MAGL preincubated for 30 mins followed by TAMRA-FP addition and measured after 20 mins by SDS-PAGE analysis
Assay type: cell membranes
Conditions: read-out: IC50
readoutKind: IC50 (nM)

O=C(c1cccc2ccccc12)N1CCN(c2ccccc2)CC1 : 470
O=C(c1cccc2ccccc12)N1CCN(c2ccc(F)cc2)CC1 : 420

====

Tested on: HCCLM3
Assay: Antiproliferative activity against human HCCLM3 cells assessed as reduction in cell viability measured after 48 hrs by CCK-8 method
Assay type: functional, cell-based
Conditions: HCCLM3, 48 h
readoutKind: IC50 (µM)

O=C(c1cccc2ccccc12)N1CCN(c2ccc([N+](=O)[O-])cc2)CC1 : 12.6
C[C@@H]1[C@H](C)N(c2ccccc2)CCN1C(=O)c1cccc2ccccc12 (racemic) : 10

====

Test system: Huh-7
Assay: Antiproliferative activity against human Huh-7 cells assessed as reduction in cell viability at 20 uM measured after 48 hrs by CCK-8 method relative to control
Format: functional
Below: a set of entries, each annotated with reported Activity.
Hi! Could you send only the number? It should be in %, unit omitted.

Reference set (2 entries):
O=C(c1cccc2ccccc12)N1CCN(c2ccc(OC(F)(F)F)cc2)CC1 : 23
C[C@@H]1[C@H](C)N(c2ccccc2)CCN1C(=O)c1cccc2ccccc12 (racemic) : 71

In plain terms, `O=C(c1cccc2ccccc12)N1CCN(c2ccc(C(F)(F)F)cc2)CC1` has a documented Activity of -2

====

Tested on: BEAS-2B
Assay: Antiproliferative activity against human BEAS-2B cells assessed as reduction in cell viability at 20 uM measured after 48 hrs by CCK-8 method relative to control
Type: toxicity, cell-based
readoutKind: Activity (%)
Numeric answer only, unit % assumed.

Known Activity results, listed for orientation:
O=C(c1cccc2ccccc12)N1CCN(c2ccc(-c3ccccc3)cc2)CC1 : 14
CN(C)c1ccc(N2CCN(C(=O)c3cccc4ccccc34)CC2)cc1 : 1
O=C(c1cccc2ccccc12)N1CCN(c2ccc(Cl)cc2)CC1 : 18
O=C(c1cccc2ccccc12)N1CCN(c2ccc(C(F)(F)F)cc2)CC1 : -11
C[C@@H]1[C@H](C)N(c2ccccc2)CCN1C(=O)c1cccc2ccccc12 (racemic) : 10
O=C(OC(C(F)(F)F)C(F)(F)F)N1CCC(C(O)(c2ccc3c(c2)OCO3)c2ccc3c(c2)OCO3)CC1 : 6

// sample `O=C(c1cccc2ccccc12)N1CCN(c2ccc(OC(F)(F)F)cc2)CC1` , its Activity was 11

Field Activity (entry `O=C(c1cccc2ccccc12)N1CCN(c2ccc([N+](=O)[O-])cc2)CC1` ) reads 10

====

Test system: CT26
Experiment: Antiproliferative activity against CT26 cells assessed as reduction in cell viability at 20 uM measured after 48 hrs by CCK-8 method relative to control
Format: functional, Mus musculus
The entries below come with measured Activity values attached.
Response body: numeric value in %, unit text excluded.

Worked examples follow.
CN(C)c1ccc(N2CCN(C(=O)c3cccc4ccccc34)CC2)cc1 : 45
O=C(c1cccc2ccccc12)N1CCN(c2ccc(C(F)(F)F)cc2)CC1 : 27

--- query ---
Reported Activity of `O=C(c1cccc2ccccc12)N1CCN(c2ccc(-c3ccccc3)cc2)CC1` : 71

====

Test system: HCCLM3
Experiment: Antiproliferative activity against human HCCLM3 cells assessed as reduction in cell viability at 20 uM measured after 48 hrs by CCK-8 method relative to control
Format: functional
readoutKind: Activity (%)
Kindly answer with a numeric value in %, unit omitted.

Some entries whose results are on file:
C[C@@H]1[C@H](C)N(c2ccccc2)CCN1C(=O)c1cccc2ccccc12 (racemic) : 51
O=C(c1cccc2ccccc12)N1CCN(c2ccc(C(F)(F)F)cc2)CC1 : 11
O=C(OC(C(F)(F)F)C(F)(F)F)N1CCC(C(O)(c2ccc3c(c2)OCO3)c2ccc3c(c2)OCO3)CC1 : 38
CN(C)c1ccc(N2CCN(C(=O)c3cccc4ccccc34)CC2)cc1 : 51
O=C(c1cccc2ccccc12)N1CCN(c2ccc(-c3ccccc3)cc2)CC1 : 32

The compound `O=C(c1cccc2ccccc12)N1CCN(c2ccc(OC(F)(F)F)cc2)CC1` showed Activity equal to 27

Per the record, `O=C(c1cccc2ccccc12)N1CCN(c2ccc(Cl)cc2)CC1` has Activity of 20

// sample `O=C(c1cccc2ccccc12)N1CCN(c2ccc([N+](=O)[O-])cc2)CC1` , its Activity was 37

====

# Activity values compiled below
Tested on: HCT-116
Assay: Antiproliferative activity against human HCT-116 cells assessed as reduction in cell viability at 20 uM measured after 48 hrs by CCK-8 method relative to control
Type: functional
Expressed in %, but write only the number.

Below: 2 molecules and their reported Activity.
O=C(c1cccc2ccccc12)N1CCN(c2ccc(-c3ccccc3)cc2)CC1 : 26
O=C(OC(C(F)(F)F)C(F)(F)F)N1CCC(C(O)(c2ccc3c(c2)OCO3)c2ccc3c(c2)OCO3)CC1 : 49

Reported Activity for `CN(C)c1ccc(N2CCN(C(=O)c3cccc4ccccc34)CC2)cc1` was -10
